Assay: MCF7 Cancer Cell Toxicity qHTS against the NCATS CANVASS Library (AID 1347369)
Conditions: MCF7 viability, ATP luminescence (CellTiter-Glo), 72 h; series mostly up to 46 µM
Results filed as inconclusive are left out. Calls of active or inactive are those of the source. Calls follow the shape of the dose curve; as a rule, active = well fitted cell-killing curve with a large enough effect; inconclusive = small, poorly fitted or top-dose-only effect; inactive = no such curve, though single readings can be large or run the other way.
Allowed answers: TRUE (active), FALSE (inactive)

molecule: C=CC(C)(C)C(=O)[C@@H](C)[C@@H]1CC[C@@](C)(C=C)O1
group-label: FALSE
//
molecule: COC(=O)C1=C[C@]23C[C@@H](C)CC[C@@H]2[C@@]2(C)CC[C@@H](C(C)C)[C@@](O)(O3)[C@@H]12
group-label: FALSE
//
molecule: CO[C@@H](C[C@@H](C)[C@@H](O)/C=C/C=C/CNC(=O)C(C)(C)[C@H](O)\C(C)=C/C=C\C=C\Cc1cnco1)[C@]1(O)[C@@H](C)C(=O)N(C)[C@@]12COC2=O
group-label: FALSE
//
molecule: COc1c(O)cc(O)c2c(=O)cc(-c3ccccc3)oc12
group-label: FALSE
//
molecule: CN1CC[C@]2(c3cccc4c3N[C@H]3N(C)CC[C@@]43[C@]34CCN(C)[C@H]3Nc3ccccc34)c3ccccc3N[C@H]12
group-label: TRUE
//
molecule: COC(=O)c1cccc2oc(-c3cccc4oc(-c5c(C)cccc5O)nc34)nc12
group-label: FALSE

# input for lookup
In this assay, the call recorded for C/C(=C\[C@H](C)C(=O)C[C@H](O)CC1CC(=O)NC(=O)C1)[C@@H]1OC(=O)CCCC/C=C/C[C@@H](O)[C@@H]1C was what?
FALSE

====

Biological target: 3',5'-cyclic-AMP phosphodiesterase 4B (Homo sapiens) (UniProt Q07343)
Sequence (Q07343 whole entry, looked up): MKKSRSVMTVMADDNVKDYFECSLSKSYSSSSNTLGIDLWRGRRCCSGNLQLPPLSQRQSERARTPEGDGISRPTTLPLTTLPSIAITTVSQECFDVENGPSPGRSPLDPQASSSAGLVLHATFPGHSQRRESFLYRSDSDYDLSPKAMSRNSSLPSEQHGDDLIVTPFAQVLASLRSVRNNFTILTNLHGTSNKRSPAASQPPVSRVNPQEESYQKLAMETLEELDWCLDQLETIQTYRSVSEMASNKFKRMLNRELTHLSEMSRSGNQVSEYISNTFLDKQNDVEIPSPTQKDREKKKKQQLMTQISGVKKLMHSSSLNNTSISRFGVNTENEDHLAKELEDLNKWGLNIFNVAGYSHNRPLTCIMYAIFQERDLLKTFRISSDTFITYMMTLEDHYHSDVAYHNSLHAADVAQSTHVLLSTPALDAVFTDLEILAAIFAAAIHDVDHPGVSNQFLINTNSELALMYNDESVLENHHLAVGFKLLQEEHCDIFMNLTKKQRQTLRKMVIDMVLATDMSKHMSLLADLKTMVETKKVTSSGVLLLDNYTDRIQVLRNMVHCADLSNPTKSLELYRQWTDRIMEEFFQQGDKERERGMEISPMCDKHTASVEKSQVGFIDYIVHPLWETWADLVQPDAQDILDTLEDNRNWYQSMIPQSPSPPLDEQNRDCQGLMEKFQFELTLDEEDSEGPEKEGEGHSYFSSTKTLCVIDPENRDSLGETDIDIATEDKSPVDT
Assay: qHTS Assay for Inhibitors of PDE-IV (AID 607)
Conditions: HEK293 ACTOne CNG channel cells, membrane potential fluorescence; series mostly up to 22.9 µM
Inconclusive results are not listed. Active and inactive are the calls of the source. Calls come from the whole dose curve; as a rule, active = well fitted activation curve with a large enough effect in the main read-out, with a control signal flat (not every such curve was filed as active); inconclusive = small, poorly fitted or top-dose-only effect, or effect the other way, or a change in a side signal; inactive = flat fitted curve, though single readings scatter.
readout-name: outcome

In the examples that follow, each entry is paired with its recorded outcome.
substance-smiles: CN1CCN(c2ncc3nc(-c4cc(F)cc(F)c4)c(=O)n(C4CC4)c3n2)CC1
outcome: inactive
//
substance-smiles: O=C(c1ccco1)N1CCC[C@@]2(CCN(Cc3ccccc3)C2)C1
outcome: inactive
//
substance-smiles: COc1ccc(-c2nc3cnc(Oc4ccccc4)nc3n(CCC#N)c2=O)cc1
outcome: inactive
//
substance-smiles: O=C(c1cnccn1)N1CCC[C@@]2(CCN(Cc3cc(C(F)(F)F)cc(C(F)(F)F)c3)C2)C1
outcome: inactive

With those in mind, consider the next compound.
Value of outcome reported for the compound CC(=O)N1CCC[C@@]2(CCN(c3ncccn3)C2)C1 is inactive

====

Test: Primary qHTS for inhibitors of nuclear receptor binding SET domain protein 2 (NSD2) in an isogenic RCH-ACV NSD2 p.E1099K mutant (9B) (AID 1645876); also: nearly all actives have a fitted effect of over 70% in size
Conditions: RCH-ACV (leukaemia line) NSD2 E1099K (9B) viability, CellTiter-Glo, 72 h; series mostly up to 44.9 µM
Records with an inconclusive call do not appear. Active and inactive are the calls of the source. Calls follow the shape of the dose curve; as a rule, active = well fitted inhibition curve with a large enough effect; inconclusive = small, poorly fitted or top-dose-only effect; inactive = flat fitted curve, though single readings scatter.
Allowed answers: t = active, f = inactive

Consider the worked cases shown below.
molecule: C[C@]12CCC3[C@@H](CC[C@H]4NC(=O)C=C[C@]34C)[C@@H]1CC[C@@H]2C(=O)Nc1cc(C(F)(F)F)ccc1C(F)(F)F (some centres not stated)
group-label: f
//
molecule: NC(=O)/C(=C/n1cnc(-c2cc(C(F)(F)F)cc(C(F)(F)F)c2)n1)c1cncnc1
group-label: t
//
molecule: CC(C)(O)CNc1ncc(-c2ccnc(Nc3ccncc3)n2)c(CC2CC2)n1
group-label: t
//
molecule: O=c1[nH]nc2c3c(cccc13)NC(CN1Cc3ccccc3C1)=N2
group-label: t
//
molecule: CCC(C)CNCC(=O)N1CCc2sccc2C1c1cccc(C)n1 (configuration not stated)
group-label: f
//
molecule: Cn1cc(-c2ccc(-c3cncc(Cl)c3N3CCC4(CCNC4=O)CC3)cc2)cn1
group-label: t

In this assay, the call recorded for CC(C)(O)[C@H]1CC[C@@](C)([C@H]2[C@@H](O)C[C@@]3(C)[C@@H]4C[C@H](O[C@@H]5O[C@H](CO)[C@@H](O)[C@H](O)[C@H]5O)[C@H]5C(C)(C)[C@@H](O[C@@H]6OC[C@@H](O)[C@H](O)[C@H]6O)CC[C@@]56C[C@@]46CC[C@]23C)O1 was what?
f
